Where do the numbers come from? From ChEMBL document CHEMBL1201862.

System: DMS-114
method summary: NCI tumour cell line growth inhibition, 48 h
The source made the active and inactive calls. No stated cut-off is given here; in the data, active = GI50 up to about 1.1 µM and inactive = higher.
The entries below come with measured GI50 values attached.

>  <molecule>
COC(=O)C(CC(=O)Nc1ccc(C)cc1)C(=O)C(=O)Nc1c(C(C)C)cccc1C(C)C (stereo not given)

>  <GI50>
> 100 µM (inactive)

$$$$
>  <molecule>
CCOC(=O)C1=C(O)C(=O)c2ccsc2C1=O

>  <GI50>
> 100 µM (inactive)

$$$$
>  <molecule>
Cc1cc(NS(=O)(=O)c2ccc(NC(=O)c3ccc(Cl)c4c(Nc5ccc(S(=O)(=O)N=C(N)N)cc5)c5ccccc5nc34)cc2)no1

>  <GI50>
62.4 µM (inactive)

$$$$
>  <molecule>
O=S(O)CCCSSSCCCS(=O)O

>  <GI50>
> 100 µM (inactive)

$$$$
>  <molecule>
CCCCNC1=C(C(=O)OCC)C(=O)CO1

>  <GI50>
> 100 µM (inactive)

$$$$
>  <molecule>
Cc1ccc(C(O)/C(=N/N)c2nc3ccc([N+](=O)[O-])cc3nc2O)cc1 (stereo not given)

>  <GI50>
33.9 µM (inactive)

$$$$
>  <molecule>
Cn1cc2ccccc2c1-c1nc(F)nc(Oc2ccc3c(c2)CC[C@@H]2C3CC[C@@]3(C)C2C[C@H](O)[C@@H]3O)n1 (stereo not given in full)

>  <GI50>
12.3 µM (inactive)

$$$$
>  <molecule>
CCOC(=O)C(=O)Nc1c(C(C)C)cccc1C(C)C

>  <GI50>
> 100 µM (inactive)

$$$$
>  <molecule>
O=C(O)c1c[nH]c2c(ccc3ncccc32)c1=O

>  <GI50>
> 100 µM (inactive)

$$$$
>  <molecule>
COC1C2C=CC(C2)[C@H]1[N+](=O)[O-] (stereo not given in full)

>  <GI50>
> 100 µM (inactive)

$$$$
